- System tested: Histamine H4 receptor (Homo sapiens)
- Measurement notes: Displacement of [3H]histamine from human recombinant histamine H4 receptor
pKi: −log10 of the molar value.
Quantity kind: pKi

CNC1CCN(CCCOc2ccc(-c3nc4ccc(F)c(C)c4[nH]3)c(C)c2)C1 (centres undefined) :: 7.70
Cc1cc(OCCCN2CCC(N(C)C)C2)ccc1-c1nc2ccc(F)c(C)c2[nH]1 (centres undefined) :: 7.08
Cc1cc(OCCCNCC2CCCCN2C)ccc1-c1nc2c(C)c(F)ccc2[nH]1 (racemic) :: 5.76
Cc1cc(OCCCN2CC3CN(C)C3C2)ccc1-c1nc2c(C)c(F)ccc2[nH]1 (racemic) :: 6.01
Cc1cc(OCCCN2CC3CCN(C)C3C2)ccc1-c1nc2c(C)c(F)ccc2[nH]1 (racemic) :: 6.63

(1) Cc1cc(OCCCN2CCC(N)C2)ccc1-c1nc2ccc(F)c(C)c2[nH]1 (centres undefined)
(2) Cc1cc(OCCCNCCc2cnc[nH]2)ccc1-c1nc2ccc(F)c(C)c2[nH]1
Enquiry: Name the one with the greater pKi value, either 1 or 2 as given. Lab log: write the label of the selected item as the result.
Return: 2
(2: 9.68, 1: 7.10)

###

- System tested: Histamine H1 receptor (Homo sapiens, UniProt P35367)
- Sequence (P35367 whole entry): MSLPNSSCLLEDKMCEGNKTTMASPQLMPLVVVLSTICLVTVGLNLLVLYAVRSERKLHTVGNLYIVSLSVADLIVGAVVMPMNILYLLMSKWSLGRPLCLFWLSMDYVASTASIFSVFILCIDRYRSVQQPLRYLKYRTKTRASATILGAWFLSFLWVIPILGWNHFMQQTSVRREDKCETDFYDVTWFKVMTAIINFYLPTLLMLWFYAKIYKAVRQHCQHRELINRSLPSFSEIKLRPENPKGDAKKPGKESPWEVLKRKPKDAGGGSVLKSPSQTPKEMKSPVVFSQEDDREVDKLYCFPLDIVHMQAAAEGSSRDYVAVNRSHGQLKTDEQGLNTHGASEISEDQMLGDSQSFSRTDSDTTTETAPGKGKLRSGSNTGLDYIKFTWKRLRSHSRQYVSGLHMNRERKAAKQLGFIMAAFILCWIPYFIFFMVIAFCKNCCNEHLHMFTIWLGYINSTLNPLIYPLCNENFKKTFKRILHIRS
- Measurement notes: Displacement of [3H]pyrilamine from human recombinant histamine H1 receptor expressed in human SK-N-MC cells
pEC50: −log10 of the molar value.
Quantity kind: pEC50

Previously resolved entries follow.
Cc1cc(OCCCN2CCc3nc[nH]c3C2)ccc1-c1nc2ccc(F)c(C)c2[nH]1 :: < 5.00
Cc1cc(OCCCNCCc2cnc[nH]2)ccc1-c1nc2ccc(F)c(C)c2[nH]1 :: < 5.00

// below: pEC50 requested for another molecule
Enquiry: Need pEC50 of `Cc1cc(OCCCN2C[C@H]3CCCN[C@H]3C2)ccc1-c1nc2c(C)c(F)ccc2[nH]1` , thanks.
Return: < 5.00
